Test system: SF-539 CNS
Experiment: NCI tumour cell line growth inhibition, 48 h
Where a SMILES comes first, the peptide text is derived from it. [ ]: non-standard residue; d: D form. Hiv = CC(C)[C@H](O)C(=O)O
Entries and their TGI

MOLECULE: COC1=CC2CCN3Cc4cc5c(cc4C(C1O)C23)OCC5 (stereo not given)
TGI: 21.3 µM
--
MOLECULE: N=c1oc2ccc(Cl)cc2cc1C(N)=O
TGI: > 100 µM
--
MOLECULE: CO/N=C(\C)c1cccc(Nc2nc3ccccc3c3occc23)c1
TGI: 26.9 µM
--
MOLECULE: COc1cc([N+](=O)[O-])ccc1N1C(=O)C2c3[nH]c4ccccc4c3C3CCC(C(C)(C)C)CC3C2C1=O (stereo not given)
TGI: > 100 µM
--
MOLECULE: CC(C)(C)OC(=O)NC(CS(=O)(=O)O)C(=O)O (stereo not given)
TGI: > 100 µM

The molecule Cc1cc(N)cc(C)c1-c1c(Br)cc(N)cc1Br showed TGI equal to 11.1 µM

The molecule FC(F)(F)c1ccc(NCc2nc3ccccc3[nH]2)cc1 showed TGI equal to > 100 µM

The molecule COC(=O)C(Cc1nc2ccccc2[nH]c1=O)C(=O)C(=O)Nc1ccc(F)cc1 (stereo not given) showed TGI equal to > 100 µM

The molecule CC12CC(=O)C3C(CCC4=CC(=O)CCC43C)C1CC=C2CC(=O)O (stereo not given) showed TGI equal to > 100 µM

The molecule CC(C)[C@@H]1OC(=O)[C@@H](C)NC(=O)[C@@H]2CCCN2C1=O (cyclo([Hiv]-Pro-[dA])) showed TGI equal to > 100 µM

---

Entries and their TGI
Test system: HCT-15 colon
Experiment: NCI tumour cell line growth inhibition, 48 h

Illustrative cases are given below, each with its answer.
COMPOUND: CCOC(=O)c1c2ccc(/C=C/c3ccccc3)ccc-2c(C(=O)OCC)c1N
TGI: > 100 µM
//
COMPOUND: O=c1[nH]c(SCc2ccccc2[N+](=O)[O-])nc2nc[nH]c12
TGI: > 100 µM
//
COMPOUND: Cn1ccoc1=Nc1ccc(Cl)c(Cl)c1
TGI: > 10 µM

The compound CSc1ccc(/C=C2\N=C(c3ccccc3)N(/N=C3\C(=O)Nc4ccccc43)C2=O)cc1 showed TGI equal to > 100 µM

The compound COc1ccc(-c2nc3sccn3c2-c2ccnc(NCCCNS(=O)(=O)c3ccc(F)cc3)n2)cc1 showed TGI equal to 10.6 µM

---

System: A549 NSCLC
Experiment: NCI tumour cell line growth inhibition, 48 h
Where a SMILES comes first, the peptide text is derived from it. [ ]: non-standard residue; d: D form. Hiv = CC(C)[C@H](O)C(=O)O
MEASUREMENT_TYPE: TGI

COMPOUND: O=C1NC(=N[C@H](CO)c2ccccc2)S/C1=C\c1ccc2ncccc2c1
TGI: 18.8 µM
//
COMPOUND: Cc1cc2c(cc1C)C(=O)/C(=C/c1ccccc1C(=O)O)C2
TGI: > 100 µM
//
COMPOUND: Cc1[nH]n(-c2cccc(Cl)c2)c(=O)c1/C=C1\C=c2ccccc2=CC1=O
TGI: > 100 µM

The compound CC(C)[C@@H]1OC(=O)[C@@H](C)NC(=O)[C@@H]2CCCN2C1=O (cyclo([Hiv]-Pro-[dA])) showed TGI equal to > 100 µM

The compound CCOC(=O)CC(=O)CSc1c(-c2ccccc2)c(=O)n(-c2ccccc2)c(=S)n1-c1ccccc1 showed TGI equal to > 100 µM

The compound CCCCCCC1CC(=O)C1(Cl)Cl (configuration not stated) showed TGI equal to > 100 µM

The compound Cc1ccc(/C=C2\NC(=S)N(CN3CCCCC3)C2=O)cc1 showed TGI equal to > 100 µM

The compound c1ccc2c(c1)N=C(c1ccc3ccccc3c1)CC(c1cccc3ccccc13)S2 (configuration not stated) showed TGI equal to > 100 µM

The compound Fc1ccc(C2C3CCOc4c(ccc5ccccc45)C3=NN2c2ccccc2)cc1 (configuration not stated) showed TGI equal to > 100 µM

The compound OCCCCCCCCCCCOc1ccc(C2OCC3(CC=CCC3)CO2)cc1 (configuration not stated) showed TGI equal to 45.7 µM

The compound CC(C)COC(c1ccc2c(c1)OCO2)C(C)Br (configuration not stated) showed TGI equal to > 100 µM

The compound O=C1CC[C@@H](NC(=O)Cc2ccccc2)C(=O)N1 showed TGI equal to > 100 µM

The compound O=C(O)c1cn(C2CC2)c2cc(N3CCN(Cc4ccc5ccccc5c4O)CC3)c(F)cc2c1=O showed TGI equal to > 100 µM

The compound CNCCN(C)Cc1cn[nH]c1-c1ccc(OC2CC(OCCC3CCOCC3)C2)cc1 (configuration not stated) showed TGI equal to > 100 µM

The compound O=C1NC(=O)C(c2c[nH]c3ccccc23)=C1c1ccccc1 showed TGI equal to > 25 µM

The compound Nc1c(Br)cc(-c2nc3ccccc3s2)cc1Br showed TGI equal to > 100 µM

The compound OCc1ccc(N(Cc2ccc(F)cc2)CC2CCC2)cc1Cl showed TGI equal to 22.4 µM

---

System: SF-268 CNS
Assay: NCI tumour cell line growth inhibition, 48 h
MEASUREMENT_TYPE: TGI

Illustrative cases are given below, each with its answer.
MOLECULE: COC(=O)N/N=C(/c1nc2ccc([N+](=O)[O-])cc2[nH]c1=O)C(O)c1ccc(OC)c(OC)c1 (configuration not stated)
TGI: > 100 µM
--
MOLECULE: COC(CC1(OC)OC(=O)C=C1N)OC (configuration not stated)
TGI: > 100 µM
--
MOLECULE: Fc1ccc(-c2c(-c3ccncc3)[nH]c3nccnc23)cc1
TGI: > 25 µM
--
MOLECULE: CCSc1nc(-c2cccs2)nc2ccc(I)cc12
TGI: > 100 µM
--
MOLECULE: CCCCCC(=Nc1n[nH]nc1C(N)=O)OCC
TGI: > 100 µM
--
MOLECULE: COc1ccc2c(c1)C(=O)c1c-2c(N2CCN(C(=O)CCNCCNCCO)CC2)nc2ccccc12
TGI: 36.9 µM
--
MOLECULE: CNN1C(=O)c2c(C)c(C)c(C#N)c(N)c2C1=O
TGI: > 100 µM
--
MOLECULE: O=C1c2ccccc2C(=O)c2c1ccc1c2N=C(c2ccc(Br)cc2)CC(c2cccc3ccccc23)N1 (configuration not stated)
TGI: > 100 µM

The molecule CCCCCCCN(CCCCCCC)CC(O)c1cc2ccccc2c2cc(Br)ccc12 (configuration not stated) showed TGI equal to 54.8 µM

The molecule COc1ccc(-c2nc3sccn3c2-c2ccnc(NCCCNS(=O)(=O)c3ccc(F)cc3)n2)cc1 showed TGI equal to 48.3 µM

The molecule N=c1oc2ccccc2cc1C(=O)Nc1nccs1 showed TGI equal to > 100 µM

The molecule COc1cc2c(cc1OC)C(=O)/C(=C/c1cc(Cl)cc(Cl)c1)C2 showed TGI equal to > 100 µM

The molecule CC(=O)Oc1ccc(/C=C/C(=O)OCCOC(=O)/C=C/c2ccc(OC(C)=O)c(OC(C)=O)c2)cc1OC(C)=O showed TGI equal to 56.5 µM

The molecule Cc1c2cc[n+](C)cc2c(C)c2c1oc1ccccc12 showed TGI equal to 2.71 µM

The molecule FC(F)(F)c1ccc(NCc2nc3ccccc3[nH]2)cc1 showed TGI equal to > 100 µM

The molecule CC(=O)NC(CCCNC(=O)OCc1ccccc1)C(=O)O (configuration not stated) showed TGI equal to > 100 µM

---

Tested on: NCI-H522 lung
Experiment: NCI tumour cell line growth inhibition, 48 h
MEASUREMENT_TYPE: TGI (µM)
Respond numerically; units are µM and should not be typed.

SMILES_STR: COCCOC1=C(Cl)C(=O)c2c(O)ccc(O)c2C1=O
TGI / µM: 1.67

Now consider a different compound.
The compound COc1cc(Cn2c(SCC(=O)Nc3ccc(Cl)cc3)nc3ccccc3c2=O)cc(OC)c1OC showed TGI equal to 21.9

---

Test system: NCI-H522 lung
Assay: NCI tumour cell line growth inhibition, 48 h
MEASUREMENT_TYPE: TGI

Illustrative cases are given below, each with its answer.
MOLECULE: CCSc1nnc(-c2ccccc2)nc1Cc1ccc(OC)cc1
REPORTED_RESULT: > 100 µM
//
MOLECULE: CN1CCc2cc3c4cc2C1Cc1ccc(cc1)Oc1cc(ccc1O)CC1c2c(cc(O)c(c2O4)O3)CCN1C (stereo unspecified)
REPORTED_RESULT: 11.1 µM
//
MOLECULE: N#Cc1c(N)c(C#N)c2c(c1-c1ccc(Cl)cc1)COc1ccc(F)cc1-2
REPORTED_RESULT: 14.5 µM
//
MOLECULE: CS(=O)(=O)N1CCc2c(-c3cnc(N)nc3)nc(N3CCOCC3)nc21
REPORTED_RESULT: > 48.7 µM
//
MOLECULE: Cc1[nH]n(-c2cccc(Cl)c2)c(=O)c1/C=C1\C=c2ccccc2=CC1=O
REPORTED_RESULT: > 100 µM

// TGI (NCI-H522 lung) for Cc1cn2c(/C=C3/C(=O)Nc4ccc(Cl)cc43)c(C)nc2s1 = > 100 µM

// TGI (NCI-H522 lung) for COC(=O)c1ccc(/C=C2\Oc3cc(O)ccc3C2=O)cc1 = > 100 µM

// TGI (NCI-H522 lung) for CCO[C@]12CCC[C@H]1[C@@H]1C(=O)c3ccccc3C(=O)C1=C(C)O2 = > 100 µM

// TGI (NCI-H522 lung) for Oc1cccc(-c2nc(-c3ccccc3)[nH]c2-c2ccncc2)c1 = > 25 µM

// TGI (NCI-H522 lung) for COC(CC1(OC)OC(=O)C=C1N)OC (stereo unspecified) = > 100 µM

// TGI (NCI-H522 lung) for CC(=O)OCC1OC(Oc2cc(C)c(O)cc2C/C=C(\C)CC/C=C(\C)C[C@@H](C=C(C)C)OC(C)=O)C(O)C(OC(C)=O)C1OC(C)=O (stereo partly specified) = > 50 µM

// TGI (NCI-H522 lung) for COc1ccc2c(c1)CCc1c-2n(CCN2CCOCC2)c2ccc(OC)cc12 = > 100 µM

// TGI (NCI-H522 lung) for c1ccc2c3nnc(c2c1)SCCCSc1nnc(c2ccccc12)SCCCS3 = > 100 µM
